system: DU-145; experiment: Cytotoxicity against human DU145 cells after 48 hrs by SRB assay; type: functional, cell-based; conditions: Homo sapiens, DU-145, 48 h
Under this convention, T denotes TGI strictly below 2000 nM and F denotes TGI at or above 2000 nM.

Worked set:
>  <compound>
C/C=C1\NC(=O)[C@H](Cc2ccccc2)NC(=O)[C@@H](C(C)C)NC(=O)[C@@H]([C@H](C)CC)NC(=O)[C@H](NC(=O)[C@H](NC(=O)[C@H](CCCN)NC(=O)[C@H]2CCCN2C(=O)[C@H](NC(=O)[C@@H](NC(=O)[C@@H](NC(=O)[C@H](NC(=O)Cc2ccc(C(F)(F)F)cc2)C(C)C)[C@@H](C)O)C(C)C)C(C)C)[C@H](C)CC)[C@H](C)OC(=O)[C@H](C(C)C)NC1=O

>  <discrete-label>
F

$$$$
>  <compound>
C/C=C1\NC(=O)[C@H](Cc2ccccc2)NC(=O)[C@@H](C(C)C)NC(=O)[C@@H]([C@H](C)CC)NC(=O)[C@H](NC(=O)[C@H](NC(=O)[C@H](CCCN)NC(=O)[C@H]2CCCN2C(=O)[C@H](NC(=O)[C@@H](NC(=O)[C@@H](NC(=O)[C@H](NC(=O)CCCC(C)C)C(C)C)[C@@H](C)O)C(C)C)C(C)C)[C@H](C)CC)[C@H](C)OC(=O)[C@H](C(C)C)NC1=O [KAHALALIDE F]

>  <discrete-label>
T

$$$$
>  <compound>
C/C=C1\NC(=O)[C@H](Cc2ccccc2)NC(=O)[C@@H](C(C)C)NC(=O)[C@@H]([C@H](C)CC)NC(=O)[C@H](NC(=O)[C@H](NC(=O)[C@H](CCCN)NC(=O)[C@H]2CCCN2C(=O)[C@H](NC(=O)[C@@H](NC(=O)[C@@H](NC(=O)[C@H](NC(=O)c2ccccc2)C(C)C)[C@@H](C)O)C(C)C)C(C)C)[C@H](C)CC)[C@H](C)OC(=O)[C@H](C(C)C)NC1=O

>  <discrete-label>
T

$$$$
>  <compound>
C/C=C1\NC(=O)[C@H](Cc2ccccc2)NC(=O)[C@@H](C(C)C)NC(=O)[C@@H]([C@@H](C)CC)NC(=O)[C@H](NC(=O)[C@H](NC(=O)[C@H](CCCN)NC(=O)[C@H]2CCCN2C(=O)[C@H](NC(=O)[C@@H](NC(=O)[C@@H](NC(=O)[C@H](NC(=O)CCCC(C)C)[C@@H](C)O)[C@@H](C)O)C(C)C)C(C)C)[C@@H](C)CC)[C@@H](C)OC(=O)[C@H](C(C)C)NC1=O

>  <discrete-label>
T

$$$$
>  <compound>
C/C=C1\NC(=O)[C@H](Cc2ccccc2)NC(=O)[C@@H](C(C)C)NC(=O)[C@@H]([C@H](C)CC)NC(=O)[C@H](NC(=O)[C@H](NC(=O)[C@H](CCCN)NC(=O)[C@H]2CCCN2C(=O)[C@H](NC(=O)[C@H](CCC2CCCCC2)NC(=O)[C@@H](NC(=O)[C@@H](CC2CCCCC2)NC(=O)CCCC(C)C)[C@@H](C)O)C(C)C)[C@H](C)CC)[C@H](C)OC(=O)[C@H](C(C)C)NC1=O

>  <discrete-label>
F

$$$$
>  <compound>
C/C=C1\NC(=O)[C@@H]2C[C@@H]3CCCC[C@@H]3N2C(=O)[C@@H](C(C)C)NC(=O)[C@@H]([C@H](C)CC)NC(=O)[C@H](NC(=O)[C@H](NC(=O)[C@H](CCCN)NC(=O)[C@H]2CCCN2C(=O)[C@H](NC(=O)[C@@H](NC(=O)[C@@H](NC(=O)[C@H](NC(=O)CC[C@@H](C)CC)C(C)C)[C@@H](C)O)C(C)C)C(C)C)[C@H](C)CC)[C@H](C)OC(=O)[C@H](C(C)C)NC1=O

>  <discrete-label>
T

$$$$
>  <compound>
C/C=C1\NC(=O)[C@H](Cc2ccccc2)NC(=O)[C@@H](C(C)C)NC(=O)[C@@H]([C@H](C)CC)NC(=O)[C@H](NC(=O)[C@H](NC(=O)[C@H](CCCN)NC(=O)[C@H]2CCCN2C(=O)[C@H](NC(=O)[C@@H](NC(=O)[C@@H](NC(=O)[C@@H](CCCN)NC(=O)CCCC(C)C)[C@@H](C)O)C(C)C)C(C)C)[C@H](C)CC)[C@H](C)OC(=O)[C@H](C(C)C)NC1=O

>  <discrete-label>
T

$$$$
>  <compound>
C/C=C1\NC(=O)[C@H](Cc2ccccc2)NC(=O)[C@@H](C(C)C)NC(=O)[C@@H]([C@H](C)CC)NC(=O)[C@H](NC(=O)[C@H](NC(=O)[C@H](CCCN)NC(=O)[C@H]2CCCN2C(=O)[C@H](NC(=O)[C@@H](NC(=O)[C@@H](NC(=O)[C@H](NC(=O)CCCC(C)C)C(C)C)[C@@H](C)O)C(C)C)C(C)C)[C@H](C)CC)COC(=O)[C@H](C(C)C)NC1=O

>  <discrete-label>
F

$$$$

Lab note: TGI threshold 2000 nM. Does this compound come in strictly under it? C/C=C1\NC(=O)[C@H](Cc2ccccc2)NC(=O)[C@@H](C(C)C)NC(=O)[C@@H]([C@H](C)CC)NC(=O)[C@H](NC(=O)[C@H](NC(=O)[C@H](CCCN)NC(=O)[C@H]2CCCN2C(=O)[C@H](NC(=O)[C@@H](NC(=O)[C@@H](NC(=O)[C@H](NC(=O)CC(C)C)C(C)C)[C@@H](C)O)C(C)C)C(C)C)[C@H](C)CC)[C@H](C)OC(=O)[C@H](C(C)C)NC1=O
T

Record C/C=C1\NC(=O)[C@H](Cc2ccccc2)NC(=O)[C@@H](C(C)C)NC(=O)[C@@H]([C@H](C)CC)NC(=O)[C@H](NC(=O)[C@H](NC(=O)[C@H](CCCNC(=O)C(F)(F)F)NC(=O)[C@H]2CCCN2C(=O)[C@H](NC(=O)[C@@H](NC(=O)[C@@H](NC(=O)[C@H](NC(=O)CC[C@@H](C)CC)C(C)C)[C@@H](C)O)C(C)C)C(C)C)[C@H](C)CC)[C@H](C)OC(=O)[C@H](C(C)C)NC1=O : is its TGI strictly below 2000 nM?
T
